Measured values drawn from PubChem BioAssay (EPA / NIEHS) for this set.

- Read-out: Tissue plasminogen activator (tPA), PLAT (gene 5327)
- ASSAY_REMARKS: BSK_BE3C_tPA: BioMAP Diversity Plus: BE3C Assay for Tissue plasminogen activator (tPA) Biomarker Activity (AID 2283041)
- REPORTED_CONDITIONS: primary human bronchial epithelial cells; actives raise or lower the signal
Active and inactive are the calls of the source. How the source made its calls: active means hit-call score of the fitted dose curve at least 0.9, where 1 is the maximum; inactive means score below 0.9.
Mark one answer only. Choices: active, inactive

- SMILES_TEXT: "CNC(C)=O"
  GROUP: "inactive"
- SMILES_TEXT: "O=C(Cl)C(F)(F)C(F)(F)C(F)(F)C(=O)Cl"
  GROUP: "inactive"

Data request: Returns: the outcome recorded for CCCCCCCCCC in this assay.
Data returned: inactive

Data request: In this assay, the call recorded for CCCCCCCCCCCCCCCCOS(=O)(=O)O was what?
Data returned: active

Data request: Dear colleague, could you share the recorded outcome for CCn1nc(C)c2c1C(=O)NCC(c1ccc(O)cc1)=N2 when you have a moment?
Data returned: inactive

Data request: Please let me know the test result on file for c1ccc2ncccc2c1 .
Data returned: inactive

Data request: Tell me the recorded outcome of this test for O=C(O)[C@H](O)[C@@H](O)C(=O)O .
Data returned: inactive

Data request: Test call for this compound, please: NC(N)=O
Data returned: inactive

----------
- TARGET_OF_ASSAY: mouse Estrogen Receptor alpha (Era), Esr1 (gene 13982)
- ASSAY_REMARKS: NVS_NR_mERa: NovaScreen (NVS) Nuclear Receptor Binding Assay for mouse Estrogen Receptor alpha (Era) (AID 2283378);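 further: hit means loss of bound radioligand signal relative to DMSO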
Results filed as inconclusive are left out. Calls of active or inactive are those of the source. Rule for the calls: active = hit-call score of the fitted dose curve at least 0.9, where 1 is the maximum; inconclusive = response in the unintended direction; inactive = score below 0.9.
Output constraint: value belongs to 1 (yes) = active, 0 (no) = inactive

- MOLECULE: "NC(=O)N1c2ccccc2C=Cc2ccccc21"
  GROUP: "0 (no)"
- MOLECULE: "CC(C)CCCCCCOC(=O)C1CCCCC1C(=O)OCCCCCCC(C)C (stereo not drawn)"
  GROUP: "0 (no)"

Data request: Dear all, I need the recorded test outcome for COS(C)(=O)=O , thank you.
Data returned: 0 (no)

Data request: Tell me the assay call for CCOC(N)=O please.
Data returned: 0 (no)

Data request: Which result was noted for this molecule in the test: c1ccc2c(c1)-c1cccc3c1c-2cc1ccccc13
Data returned: 0 (no)

Data request: Please state the recorded outcome for this molecule: Cc1cccc(O)c1C
Data returned: 0 (no)

Data request: Could you please tell me the result logged for CCCCC(CC)C(=O)OCCOCCOCCOC(=O)C(CC)CCCC (stereo not drawn) in this assay?
Data returned: 0 (no)

Data request: Hi team, can someone confirm the assay call for c1ccc(C(O[C@@H]2CCCN(CCc3ccc4c(c3)OCO4)C2)c2ccccc2)cc1 ?
Data returned: 1 (yes)

----------
- TARGET_OF_ASSAY: Nuclear receptor subfamily 1 group I member 2 (Homo sapiens)
- ASSAY_REMARKS: ATG_PXR_TRANS: Attagene TRANS-FACTORIAL HepG2 Assay for human Pregnane X Receptor (PXR) (AID 2283008)
Results filed as inconclusive are left out. Activity calls are given as the source filed them. The calls were made as follows: active = hit-call score of the fitted dose curve at least 0.9, where 1 is the maximum; inconclusive = response in the unintended direction; inactive = score below 0.9.
// classify into 1.0 = active, 0.0 = inactive

Observe how each entry below is paired with its result.
- SMILES_TEXT: "O=S(=O)(O)c1ccc(N=Nc2c(O)ccc3cc(S(=O)(=O)O)ccc23)cc1"
  GROUP: 0.0
- SMILES_TEXT: "c1ccc(C(O[C@@H]2CCCN(CCc3ccc4c(c3)OCO4)C2)c2ccccc2)cc1"
  GROUP: 1.0
- SMILES_TEXT: "O=C(N[C@H](CO)[C@H](O)c1ccc([N+](=O)[O-])cc1)C(Cl)Cl"
  GROUP: 0.0

Data request: Assay outcome for O=C1CN(N=Cc2ccc([N+](=O)[O-])o2)C(=O)N1 : what was it?
Data returned: 0.0

Data request: Hello, I am checking results. What call was entered for Cc1ccc(S(=O)(=O)NC(=O)NN2CCCCCC2)cc1 ?
Data returned: 0.0

----------
- ASSAY_REMARKS: CCTE_Deisenroth_AIME_384WELL_CTox_Inactive: Cytotoxicity Assessment (CTOX) in CCTE's 384-well Estrogen Receptor Transactivation Assay without AIME metabolic competence (metabolism negative), Deisenroth Lab (AID 2284039);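 further: cell viability via live-cell protease substrate cleaved to fluorescent probe; cells exposed 24 h to medium preincubated 2 h with alginate-water beads without S9; loss of fluorescence signal means loss of viability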
Inconclusive results are not listed. Activity calls are given as the source filed them. How the source made its calls: active means hit-call score of the fitted dose curve at least 0.9, where 1 is the maximum; inconclusive means response in the unintended direction; inactive means score below 0.9.
MEASUREMENT_KIND: AC50

Worked cases, AC50 given:
- MOLECULE: "CCc1ccc(O)c(C(C)(C)C)c1"
  AC50: "inactive"
- MOLECULE: "OCC(CO)(CO)CO"
  AC50: "inactive"
- MOLECULE: "CCCCOC(=O)c1ccccc1"
  AC50: "inactive"
- MOLECULE: "CC(=O)c1ccccc1"
  AC50: "inactive"
- MOLECULE: "CCCCCOC(C)=O"
  AC50: "inactive"
- MOLECULE: "CC(C)CC(C)O (stereo unspecified)"
  AC50: "inactive"
- MOLECULE: "CCN(CC)C(=S)SSC(=S)N(CC)CC"
  AC50: "inactive"
- MOLECULE: "CCc1cccc(CC)c1N"
  AC50: "160 µM (active)"

Batch request: AC50 for each of the following molecules.
1. C[C@@H](Oc1ccc(CNC(=O)c2cccnc2Oc2ccc3c(c2)OCO3)c(F)c1)C(=O)O
2. NC(=O)NN=Cc1ccc([N+](=O)[O-])o1
3. CCCc1ccccc1

Data returned:
1: inactive; 2: 108 µM (active); 3: inactive

----------
- ASSAY_REMARKS: CCTE_Shafer_MEA_acute_cross_correlation_HWHM: CCTE's Neural Acute Assay for Cross Correlation at Half Width at Half Maximum, Shafer Lab (AID 2284026);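 further: spontaneous network firing of rat primary cortical neurons on multiwell microelectrode arrays; percent change per well from pre-dose baseline in spike cross-correlogram half width; hits are a decrease in cross-correlogram half width relative to DMSO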
The source made the active and inactive calls. Rule for the calls: active = hit-call score of the fitted dose curve at least 0.9, where 1 is the maximum; inactive = score below 0.9.
// one of t for active, f for inactive, no free text

Solved entries (count: 5):
- MOLECULE: "OCc1ccccc1"
  GROUP: "f"
- MOLECULE: "Cn1c(=O)c2[nH]cnc2n(C)c1=O"
  GROUP: "f"
- MOLECULE: "CCCc1ccccc1"
  GROUP: "f"
- MOLECULE: "CCc1ccc(O)c(C(C)(C)C)c1"
  GROUP: "f"
- MOLECULE: "C=CCc1cc(S(=O)(=O)c2ccc(O)c(CC=C)c2)ccc1O"
  GROUP: "f"

Read the next record carefully.
Data request: Could you kindly confirm the outcome this assay logged for O=S(=O)(O)c1ccc(N=Nc2c(O)ccc3cc(S(=O)(=O)O)ccc23)cc1 ?
Data returned: f

----------
- ASSAY_REMARKS: BSK_SAg_Proliferation: Cell Proliferation Assessment in the BioMAP Diversity Plus: SAg Assay (AID 2283095);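 further: relative cell number as total protein by SRB absorbance in sub-confluent culture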
- REPORTED_CONDITIONS: primary human HUVEC with PBMC
Activity calls are given as the source filed them. Rule for the calls: active = hit-call score of the fitted dose curve at least 0.9, where 1 is the maximum; inactive = score below 0.9.
The reply should name one outcome from YES = active, NO = inactive

Data request: What is the recorded call for this molecule in the test? COc1cc2c(c(OC)c1OC)-c1ccc(OC)c(=O)cc1[C@@H](NC(C)=O)CC2
Data returned: YES

Data request: Status in this test for C[C@]12C=CC(=O)C=C1CC[C@H]1[C@@H]3C[C@@H](O)[C@](O)(C(=O)CO)[C@@]3(C)C[C@H](O)[C@@]12F ?
Data returned: NO

Data request: Returns: the outcome recorded for C[Si](C)(C)C(F)(F)C(F)(F)C(F)(F)F in this assay.
Data returned: NO

Data request: Please state the recorded outcome for this molecule: COc1cc(C(C)C)c2c(c1)S(=O)(=O)N(COc1cc(=O)n3cccc(OCCN4CCCCC4)c3n1)C2=O
Data returned: YES

Data request: Recorded test outcome, item O=C(Cl)C(F)(F)C(F)(F)C(F)(F)C(=O)Cl
Data returned: NO

Data request: Dear all, I need the recorded test outcome for COS(C)(=O)=O , thank you.
Data returned: NO

----------
- ASSAY_REMARKS: ATG_ERE_CIS: Attagene CIS-FACTORIAL HepG2 Assay for Estrogen Response Element (ERE) (AID 2282940)
- REPORTED_CONDITIONS: HepG2 ERE cis-reporter, Attagene RNA transcript; actives raise or lower the signal
- Procedure: ATG_CIS is a cell-based, multiplexed-readout assay that uses HepG2, a human liver cell line, with measurements taken at 24 hours after chemical dosing in a 24-well plate.ATG_ERE_CIS is one of 52 assay component(s) measured or calculated from the ATG_CIS assay. […] This assay endpoint, ATG_ERE_CIS, was analyzed with bidirectional fitting relative to DMSO as the negative control and baseline of activity. […]
Calls of active or inactive are those of the source. Rule for the calls: active = hit-call score of the fitted dose curve at least 0.9, where 1 is the maximum; inactive = score below 0.9.
// one of yes (active), no (inactive), no free text

Before answering, review these 8 worked examples.
- COMPOUND: "COS(C)(=O)=O"
  GROUP: "no"
- COMPOUND: "CC(=O)c1ccccc1"
  GROUP: "no"
- COMPOUND: "CC(C)CC(C)O (stereo unspecified)"
  GROUP: "no"
- COMPOUND: "CC(C)CCCCCCOC(=O)C1CCCCC1C(=O)OCCCCCCC(C)C (stereo unspecified)"
  GROUP: "no"
- COMPOUND: "O=S(=O)(O)c1ccc(N=Nc2c(O)ccc3cc(S(=O)(=O)O)ccc23)cc1"
  GROUP: "no"
- COMPOUND: "C=CCc1cc(S(=O)(=O)c2ccc(O)c(CC=C)c2)ccc1O"
  GROUP: "yes"
- COMPOUND: "CCc1cccc(CC)c1N"
  GROUP: "no"
- COMPOUND: "Cn1c(=O)c2[nH]cnc2n(C)c1=O"
  GROUP: "no"

Data request: What did this assay record as the result for O=C(N[C@H](CO)[C@H](O)c1ccc([N+](=O)[O-])cc1)C(Cl)Cl ?
Data returned: no

Data request: Lab log entry: CCCCCCCC1CCC(=O)O1 (stereo unspecified) — outcome as called in the assay?
Data returned: no

Data request: What is the recorded call for this compound in the test? O=C(NO)C1(NS(=O)(=O)c2ccc(Oc3ccc(F)cc3)cc2)CCOCC1
Data returned: no

Data request: Query: recorded result category for CCCCCCCCCCCCCCCCOS(=O)(=O)O in this test
Data returned: no

Data request: What did the test return for C[C@@H](Oc1ccc(CNC(=O)c2cccnc2Oc2ccc3c(c2)OCO3)c(F)c1)C(=O)O ?
Data returned: no

Data request: Test call, this compound: CC(C)c1nnc2ccc(-c3ocnc3-c3cc(F)ccc3F)cn12
Data returned: no

Data request: Called result for CCCC(CCC)C(=O)O
Data returned: no

Data request: Record lookup: outcome of this test for FC(F)=C(F)C(F)(F)C(F)(F)C(F)(F)C(F)(F)C(F)(F)C(F)(F)F ?
Data returned: no

Data request: Recorded test outcome, item CCCCCCCCCC
Data returned: no

Data request: Per the records of this test, what outcome belongs to CC(C)C(=O)Nc1ccc([N+](=O)[O-])c(C(F)(F)F)c1 ?
Data returned: no

Data request: Kindly provide the recorded test outcome for the following compound: CNC(C)=O
Data returned: no

Data request: Entry CCCCCOC(C)=O : call = ?
Data returned: no

Data request: Test call for this compound, please: CC1(C)C(=O)N(Cl)C(=O)N1Cl
Data returned: no

Data request: What was the test verdict on C[Si](C)(C)C(F)(F)C(F)(F)C(F)(F)F ?
Data returned: no

Data request: What did the test return for COCc1nnc(-c2ccc[n+]([O-])c2)n1-c1c(Cl)c(Cl)cc2[nH]c(=O)c(=O)[nH]c12 ?
Data returned: no

Data request: I'd appreciate the recorded outcome for OCCNCCO from this test.
Data returned: no

Data request: Field: outcome | Entry: COc1cc2c(c(OC)c1OC)-c1ccc(OC)c(=O)cc1[C@@H](NC(C)=O)CC2
Data returned: no

Data request: What call does the record list for OC[C@H]1O[C@@](CO)(O[C@H]2O[C@H](CO)[C@@H](O)[C@H](O)[C@H]2O)[C@@H](O)[C@@H]1O ?
Data returned: no
